# TEST: Half life in rat at 0.05 mg/kg, iv administered as cassette dose
# Assay type: ADME, organism-based
# COND: in vivo
RESULT TYPE: half-life (min)
Reply with just the number (in min).

Ask | Name the reported half-life value associated with the molecule c1ccc(-c2nnn[nH]2)c(Nc2cccc3c2CCCC3)c1
Reply | 3

----------
For each entry below, report its Activity value.
# ASSAY TARGET: Potassium channel subfamily K member 2 (Homo sapiens) (UniProt O95069)
# TEST: Activation of human TREK1 at 10 uM by thallium flux mobilization assay relative to control
Note: unit % is implicit; provide only the numeric part.

Ask | Please provide the recorded Activity for O=C(Nc1ccccc1-c1nnn[nH]1)c1cccc2c1CCCC2 , tested on Potassium channel subfamily K member 2 (Homo sapiens) (UniProt O95069).
Reply | 6

Ask | Now the compound O=C(Nc1ccc2c(c1)CCCC2)c1ccccc1-c1nnn[nH]1
Reply | 0

Ask | And for O=C(Nc1ccccc1-c1nnn[nH]1)c1ccc2c(c1)CCCC2 ?
Reply | 24

Ask | Lookup O=C(Nc1cccc2c1CCCC2)c1ccccc1-c1nnn[nH]1
Reply | 0

----------
# ASSAY TARGET: Potassium channel subfamily K member 2 (Homo sapiens, UniProt O95069)
# Sequence (O95069 whole entry): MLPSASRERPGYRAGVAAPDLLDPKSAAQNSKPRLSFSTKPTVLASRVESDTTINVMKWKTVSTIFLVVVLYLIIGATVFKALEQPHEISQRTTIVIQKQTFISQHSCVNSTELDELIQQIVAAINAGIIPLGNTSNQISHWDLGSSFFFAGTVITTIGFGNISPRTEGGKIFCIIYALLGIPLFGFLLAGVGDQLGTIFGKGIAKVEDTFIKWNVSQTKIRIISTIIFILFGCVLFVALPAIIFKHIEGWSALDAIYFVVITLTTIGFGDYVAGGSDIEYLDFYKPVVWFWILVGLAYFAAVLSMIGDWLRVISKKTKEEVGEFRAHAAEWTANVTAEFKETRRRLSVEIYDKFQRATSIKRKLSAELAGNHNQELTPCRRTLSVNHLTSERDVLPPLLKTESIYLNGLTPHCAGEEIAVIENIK
# TEST: Activation of human TREK1 by thallium flux mobilization assay
RESULT TYPE: EC50 (µM)
I only need the number, in µM, no unit after it.

Ask | Which EC50 is reported for this compound? O=C(Nc1ccc([N+](=O)[O-])cc1C(=O)O)c1ccc(SC(F)(F)F)cc1
Reply | 13.7

Ask | Repeat with COc1ccc(NC(=O)c2ccc(SC(F)(F)F)cc2)c(C(=O)O)c1
Reply | 20.2

Ask | Now the same for O=C(Nc1cc(Cl)ccc1C(=O)O)c1ccc(SC(F)(F)F)cc1
Reply | 4.4

Ask | O=C(Nc1ccc(OC(F)(F)F)cc1C(=O)O)c1ccc(SC(F)(F)F)cc1 , same question.
Reply | 4.6

Ask | Further, for O=C(Nc1ccccc1-c1nnn[nH]1)c1ccc2c(c1)CCCC2 ?
Reply | 13.1

Ask | Further, for COc1ccc(C(=O)O)c(NC(=O)c2ccc(SC(F)(F)F)cc2)c1 ?
Reply | 16.5

Ask | And O=C(Nc1ccc(F)cc1C(=O)O)c1ccc(SC(F)(F)F)cc1 ?
Reply | 9.5

Ask | Can you handle O=C(Nc1sc(-c2ccccc2)cc1C(=O)O)c1ccc(SC(F)(F)F)cc1 next?
Reply | 22.4

Ask | Please do the same for O=C(Nc1ccc(Cl)cc1C(=O)O)c1ccc(SC(F)(F)F)cc1 as well.
Reply | 3.8

Ask | Similarly, O=C(Nc1ccc(Br)cc1C(=O)O)c1ccc(SC(F)(F)F)cc1 ?
Reply | 5.9

Ask | // repeat for O=C(Nc1ccccc1C(=O)O)c1ccc(SC(F)(F)F)cc1 and report
Reply | 12.8

Ask | Repeat with c1ccc(-c2nnn[nH]2)c(Nc2cccc3c2CCCC3)c1
Reply | 5.2

Ask | Another compound to look at: O=C(Nc1cc(F)c(Br)cc1C(=O)O)c1ccc(SC(F)(F)F)cc1
Reply | 6.1

Ask | Here is the next compound: O=C(Nc1cc(Br)ccc1C(=O)O)c1ccc(SC(F)(F)F)cc1
Reply | 4.3
